B1: CPEB3 Ribozyme (parent)
chain: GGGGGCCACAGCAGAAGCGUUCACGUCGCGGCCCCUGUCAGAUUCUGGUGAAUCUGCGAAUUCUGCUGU

- Variants of: B1
- assay.details: self-cleavage, relative activity (ratio to wild type); higher = more cleavage; co-transcriptional
Values of self-cleavage greater than or equal to 0.8 map to yes (1); values below map to no (0).

Q: Exam item: decide whether the reported self-cleavage for U43G C57U is at least 0.8.
A: no (0)

Source: the RNAGym collection of RNA variant scans (doi:10.7554/elife.80360)
